target: human CB1 receptor (hCB1) (Homo sapiens, UniProt P21554); construct: host or cells: Chinese Hamster Ovary (CHO) cells; assay: cAMP accumulation assay (Lance TR-FRET) in CHO-hCB1 cells; assay type: cell-based; conditions: CHO cells stably expressing hCB1; forskolin-stimulated; mean ± SEM
Sequence (P21554 whole entry): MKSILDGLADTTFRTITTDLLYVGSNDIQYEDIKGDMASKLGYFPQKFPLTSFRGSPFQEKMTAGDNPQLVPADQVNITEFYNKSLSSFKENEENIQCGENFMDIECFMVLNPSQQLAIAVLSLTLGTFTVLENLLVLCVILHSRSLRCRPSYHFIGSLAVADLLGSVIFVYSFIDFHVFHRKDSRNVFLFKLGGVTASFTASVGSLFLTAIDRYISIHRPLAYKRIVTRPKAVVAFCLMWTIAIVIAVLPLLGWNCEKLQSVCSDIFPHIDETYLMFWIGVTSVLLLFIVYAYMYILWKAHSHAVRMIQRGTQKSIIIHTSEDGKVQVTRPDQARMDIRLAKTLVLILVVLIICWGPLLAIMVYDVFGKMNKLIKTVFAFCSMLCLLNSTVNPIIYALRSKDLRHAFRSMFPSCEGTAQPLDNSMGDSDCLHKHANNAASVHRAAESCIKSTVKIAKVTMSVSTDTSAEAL
RECORDED METRIC: hCB1 cAMP EC50

Consider the reported hCB1 cAMP EC50 for these compounds:
CCCCN(C)C(=O)Nc1cccc(Oc2cccc(C(F)(F)F)c2C#N)c1 [Compound 19] :: Inactive
CCCCNC(=O)Nc1cccc(Oc2cccc(C(F)(F)F)c2C#N)c1 [Compound 18] :: Inactive
CCCCCC(=O)Nc1cccc(Oc2cccc(C(F)(F)F)c2C#N)c1 [Compound 16] :: Inactive
CCCCOC(=O)Nc1cccc(Oc2cccc(C(F)(F)F)c2C#N)c1 [Compound 17] :: Inactive

In: Form entry - test system: human CB1 receptor (hCB1) (Homo sapiens, UniProt P21554); read-out: hCB1 cAMP EC50; compound: N#Cc1c(Oc2ccc(NS(=O)(=O)Cc3ccccc3)cc2)cccc1C(F)(F)F [Compound 23]
Out: Inactive

* * *

molecular target: human CB1 receptor (hCB1) (Homo sapiens, UniProt P21554); construct: host or cells: Chinese Hamster Ovary (CHO) cells; assay: cAMP accumulation assay (Lance TR-FRET) in CHO-hCB1 cells; type: cell-based; details: hCB1 cAMP EC50, CHO cells stably expressing hCB1; forskolin-stimulated; mean ± SEM
RECORDED METRIC: pEC50
Give bare numbers, as −log10 of the molar value.

Consider the reported pEC50 for these compounds:
N#Cc1c(Oc2cccc(OS(=O)(=O)CCCC(F)(F)F)c2)cccc1C(F)(F)F [Compound 1, reference compound] :: 7.34
N#Cc1c(Oc2cccc(NS(=O)(=O)Cc3ccc(Cl)cc3)c2)cccc1C(F)(F)F :: 7.60

Continue with the compound presented below.
In: Can you share its pEC50? I mean this compound: N#Cc1c(Oc2cccc(NS(=O)(=O)NC3CCCCC3)c2)cccc1C(F)(F)F
Out: 6.86

* * *

Would you kindly list melting point for each of these compounds?

N#Cc1c(Oc2cccc(NS(=O)(=O)NC3CCCCC3)c2)cccc1C(F)(F)F :: 199 to 200 °C

For every listed record, write down its melting point.
1. N#Cc1c(Oc2cccc(NS(=O)(=O)Cc3ccc(Cl)cc3)c2)cccc1C(F)(F)F
2. N#Cc1c(Oc2cccc(NS(=O)(=O)Cc3ccccc3)c2)cccc1C(F)(F)F
3. N#Cc1c(Oc2ccc(NC(=O)Cc3ccccc3)cc2)cccc1C(F)(F)F
4. N#Cc1c(Oc2cccc(NS(=O)(=O)Cc3cccc(Cl)c3)c2)cccc1C(F)(F)F
5. CCCCCC(=O)Nc1cccc(Oc2cccc(C(F)(F)F)c2C#N)c1
6. N#Cc1c(Oc2cccc(NS(=O)(=O)c3ccc(OC(F)(F)F)cc3)c2)cccc1C(F)(F)F
7. N#Cc1c(Oc2cccc(NS(=O)(=O)Cc3ccccc3Cl)c2)cccc1C(F)(F)F

Out:
115 to 116 °C
131 to 132 °C
200 to 201 °C
144 to 145 °C
95 to 96 °C
164 to 165 °C
121 to 122 °C

For every listed record, write down its melting point.
1. O=S(=O)(Cc1ccccc1)Nc1cccc(Oc2cccc(C(F)(F)F)c2Cl)c1
2. N#Cc1c(Oc2cccc(NC(=O)Cc3ccccc3)c2)cccc1C(F)(F)F
3. N#Cc1c(Oc2cccc(NS(=O)(=O)c3cccc(OC(F)(F)F)c3)c2)cccc1C(F)(F)F
4. CCCCCS(=O)(=O)Nc1ccc(Oc2cccc(C(F)(F)F)c2C#N)cc1
5. N#Cc1c(Oc2ccc(NS(=O)(=O)Cc3ccccc3)cc2)cccc1C(F)(F)F

Out:
1. 129 to 130 °C
2. 136 to 137 °C
3. 120 to 121 °C
4. 94 to 95 °C
5. 166 to 167 °C

In: Can you share its melting point? I mean this compound: N#Cc1c(Oc2cccc(NS(=O)(=O)CCCC(F)(F)F)c2)cccc1C(F)(F)F
Out: 96 to 97 °C

* * *

assay: Pharmacokinetic evaluation of brain exposure in mice; design: species or system C57BL/6 mice; details: female, C57BL/6, mouse, in vivo; C57BL6 mice, 3 mg/kg IP; read-out: brain:plasma Cmax ratio
Would you kindly list Kp for each of these molecules?
Numbers only.

N#Cc1c(Oc2cccc(OS(=O)(=O)CCCC(F)(F)F)c2)cccc1C(F)(F)F [Compound 1, reference compound] :: 0.4
N#Cc1c(Oc2ccc(NC(=O)Cc3ccccc3)cc2)cccc1C(F)(F)F :: 0.79

Continue with the molecule presented below.
In: Can you share its Kp? I mean this molecule: N#Cc1c(Oc2cccc(NS(=O)(=O)NC3CCCCC3)c2)cccc1C(F)(F)F
Out: 0.17
